test system: Fer (mouse); test: phosphorylation enrichment, bacterial display (enrichment ratio); higher = better substrate or ligand; peptides without Tyr show the background;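 further: 11-residue human phosphosite peptides and single-mutation variants displayed on the E. coli surface, counted by deep sequencing, each peptide's frequency after selection divided by its frequency in the unselected input library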;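 further: frequency after pTyr selection over input frequency; kinase dosed for 20-30% of maximal phosphorylation in three min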
For each of the sequences below, state its phosphorylation enrichment.
One number for each entry.

Known results for sequences:
[[record]]
item_sequence = "KTVQDYLKKFY [MMP8_Y36_E38K]"
reported_value = 0.325

[[record]]
item_sequence = "VTVLDYEKIGK [SYT1_Y365_D366E]"
reported_value = 0.412

[[record]]
item_sequence = "RLAKTYETTLK [ALB_Y377_E382K]"
reported_value = 0.406

[[record]]
item_sequence = "DLDTEYGSGFP [RNASEH2A_Y206_D205E_YF]"
reported_value = 0.799

[[record]]
item_sequence = "LTELGYSFVTT [ACTA1_Y200_R198L]"
reported_value = 2.05


Dear colleague, could you please provide phosphorylation enrichment for the sequences listed below?
1. TRNRDYDDIDD [TTYH2_Y424]
2. YGLPRYRWLTH [TSPAN12_Y143]

Data returned:
[0.438, 0.411]

Hello, the source for this data is the supplement of paper PMC10065799, in case you need it.
